Values from patent US20210139581A1

# Kd per entry
# target_desc: T1, human CD33 (human, UniProt P20138 18-259, limits assumed)
# T1 construct: Human CD33 immobilized on the BLI sensor tip or the BIAcore C1 chip; also called Siglec-3
# assay_protocol: SPR (BIAcore), Fab over CD33 on C1 chip
Write the number in nM without appending the unit.

Solved cases below.
AB-64.1.2 (antibody, V domains shown, Variant of AB-64.1) VH: QVQLVQSGAEVKKPGASVKISCKASGYTFTDYNLHWVRQAPGQGLEWIGFIYPSNRITGYAQKFQGRATLTVDNSTSTAYMELSSLRSEDTAVYYCARSDVDYFDYWGQGTLLTVSS VL: DIVLTQSPDSLAVSLGERATINCRASQSVSTSTYSYMHWYQQKPGQPPKLLIKYASNLESGVPDRFSGSGSGTDFTLTISSLQAEDVAVYYCQHSWEIPLTFGQGTKLEIK    0.185
AB-64.3 (antibody, V domains shown) VH: QVQLVQSGAEVKKPGASVKISCKASGYTFTDYNLHWVRQAPGQGLEWIGFIYPSNGITGYAEKFEGRATLTVDNSTSTAYMELSSLRSEDTAVYYCARSFVDYFDYWGQGTLLTVSS VL: DIVLTQSPDSLAVSLGERATINCRASQDVSTSTYSYMHWYQQKPGQPPKLLIKYASYLESGVPDRFSGSGSGTDFTLTISSLQAEDVAVYYCEHSWEIPLTFGQGTKLEIK    0.00537
AB-64.1.8 (antibody, V domains shown, Variant of AB-64.1) VH: QVQLVQSGAEVKKPGASVKISCKASGYTFTDYNLHWVRQAPGQGLEWIGFIYPSNQITGYAQKFQGRATLTVDNSASTAYMELSSLRSEDTAVYYCARSDVDYFDYWGQGTLLTVSS VL: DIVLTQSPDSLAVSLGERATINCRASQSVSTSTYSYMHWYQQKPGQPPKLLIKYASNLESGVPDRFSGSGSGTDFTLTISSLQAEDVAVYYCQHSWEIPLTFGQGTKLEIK    0.175
AB-64.4 (antibody, V domains shown) VH: QVQLVQSGAEVKKPGASVKISCKASGYTFTDYNLHWVRQAPGQGLEWIGFIYPSNGITGYAQKFQGRATLTVDNSTSTAYMELSSLRSEDTAVYYCARSDVDYFDYWGQGTLLTVSS VL: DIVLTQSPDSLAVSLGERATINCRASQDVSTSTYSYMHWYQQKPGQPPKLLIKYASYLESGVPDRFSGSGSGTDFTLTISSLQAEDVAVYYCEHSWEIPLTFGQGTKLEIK    0.00367
AB-64.2 (antibody, V domains shown) VH: QVQLVQSGAEVKKPGASVKISCKASGYTFTDYNLHWVRQAPGQGLEWIGFIYPSNGITGYAQKFQGRATLTVDNSTSTAYMELSSLRSEDTAVYYCARSTVDYFDYWGQGTLLTVSS VL: DIVLTQSPDSLAVSLGERATINCRVSQDVSTSTYSYMHWYQQKPGQPPKLLIKYASNLESGVPDRFSGSGSGTDFTLTISSLQAEDVAVYYCQHSWEIPLTFGQGTKLEIK    0.0458

Lab note: AB-64.6 (antibody, V domains shown) VH: QVQLVQSGAEVKKPGASVKISCKASGYTFTDYNYHWVRQAPGQGLEWIGFIYPSNGITGYAQKFQGRATLTVDNSTSTAYMELSSLRSEDTAVYYCARSDVDYFDYWGQGTLLTVSS VL: DIVLTQSPDSLAVSLGERATINCRASQDVSTSTYSYMHWYQQKPGQPPKLLIKYASFLESGVPDRFSGSGSGTDFTLTISSLQAEDVAVYYCQHSWEIPLTFGQGTKLEIK gave Kd of 0.0063

Lab note: AB-H64 (antibody, V domains shown, Humanized variant of murine 2F5.1; also called parental humanized antibody) VH: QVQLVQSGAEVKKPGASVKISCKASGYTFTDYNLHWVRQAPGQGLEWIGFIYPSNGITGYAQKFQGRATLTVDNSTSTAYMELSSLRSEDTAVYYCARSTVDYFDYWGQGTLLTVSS VL: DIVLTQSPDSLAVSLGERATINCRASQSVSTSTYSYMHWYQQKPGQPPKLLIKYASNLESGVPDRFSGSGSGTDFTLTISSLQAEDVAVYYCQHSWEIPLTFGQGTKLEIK gave Kd of 2.15
